Listing: %Inh of selected compounds
# System: CTK
# Construct: gene MATK
# experimentalConditions: concentration: 1 μM, replicates: in singlicate; n = 1;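 further: KINOMEscan kinase panel screen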
Please reply with the bare figure in % and do not write the unit itself.

Cc1cc(N2Cc3ccccc3C2)nc(Nc2ccc(S(=O)(=O)N3CCOCC3)cc2)n1.Cl [GSK1669917] : 0
CS(=O)(=O)c1ccc(-c2nc3n(c2-c2ccncc2)CCC3)cc1 [SKF-105942] : 0
Cc1cccc(-c2nc(Nc3ccncc3)c3ccccc3n2)n1 [GW855857] : 0

Kindly consider the entry below.
I'd like to know its %Inh. The compound in question is Cn1ccc2ncnc(Oc3ccc(Nc4nc5ccccc5[nH]4)cc3)c21 0

###

%Inh values for the molecules below.
# System: WEE2
# experimentalConditions: concentration: 1 μM, replicates: in singlicate; n = 1
Form entry: enter the amount, then its unit.

O=C(Nc1n[nH]c2cc(-c3cccc(F)c3F)ccc12)C1CC1 : 0%
Cc1c(O)cccc1Nc1ccnc2ccc(C(F)(F)F)cc12.Cl : 0%
CN1C(=O)C(Nc2ccc(Cl)c(C(=O)O)c2)=C(c2ccc(Cl)cc2)C1=O : 21%
Cc1cccc(-c2nc(Nc3ccc4[nH]ncc4c3)c3ccccc3n2)n1 : 0%

Suppose we examine the molecule COc1cccc(NC(=O)NC2CCN(c3ccnc(Nc4ccc(F)cc4)n3)C2)c1 (stereo not shown) ; what %Inh value has been reported? 0%

Query: %Inh; subject: CCn1c(-c2ccccn2)nc2cnccc21 0%

Given Fc1cc(Cl)ccc1Nc1ccnc2cc(I)ccc12 , state its recorded %Inh. 0%

Given the entry Cc1cccc(-c2nc(C)cc(Nc3ccncc3)n2)n1 , report its measured %Inh. 2%

Can you look up the measured %Inh of COC(=O)c1c(-c2ccccc2)c2cc(C(=O)O)ccc2c(=O)n1Cc1ccccc1 for me? 0%

Need %Inh of Fc1cc(Cl)ccc1Nc1ccnc2cc(-c3ccc(CN4CCCCC4)o3)ccc12 , thanks. 4%

Recorded %Inh of C[C@@H]1CCCCN1c1cc(-c2ccc3c(N)n[nH]c3c2)nc(N)n1 , please. 13%

Reported %Inh for Nc1nc(-c2nccs2)c(-c2ccnc3ccccc23)s1 : what is it? 9%

Give its %Inh value. Item: CC(=O)Nc1nc2cnc(Nc3cc(NC(=O)c4cccc(CCC#N)c4)ccc3C)nc2s1 0%

%Inh lookup needed for Cc1cccc(-c2cc(Nc3ccncc3)c3ccccc3n2)n1 , thanks. 0%

###

# System: FAK
# Construct: gene PTK2
# experimentalConditions: concentration: 1 μM, replicates: in singlicate; n = 1
Collected %Inh values appear next to each entry.
Report only the number, with the unit % understood.

Solved entries (count: 6):
Cc1ccccc1-n1cnc2c(N)ncnc21 : 0
CN(C)CCN(C)C(=O)c1cc(-c2ccncc2)c(-c2ccc(Cl)c(O)c2)o1.Cl.Cl : 0
CN1C(=O)C(Nc2ccc(Cl)c(C(=O)O)c2)=C(c2ccc(Cl)cc2)C1=O : 7
Clc1cc(Cl)cc(Nc2ccnc(Nc3cc(Cl)cc(Cl)c3)n2)c1 : 0
Fc1cc(Cl)ccc1Nc1ccnc2cc(-c3ccc(CN4CCCCC4)o3)ccc12 : 0
COc1ccc(Nc2nccc(NCCNC(=O)Nc3ccccc3F)n2)cc1 : 0

Which value of %Inh has been reported for Cc1cc(-c2ccc3c(c2)CC[C@@H](N[C@@H](C)c2ccccc2)C3)cnc1N.Cl in the records? 0

Return reported %Inh; argument: O=C(O)COc1ncnc2cc(-c3ccc4[nH]ncc4c3)sc12 5

GET /values?readout=%Inh&item= Cl.NC(=O)c1cccc(Nc2nccc(Nc3ccc(Oc4cccc(Cl)c4)c(Cl)c3)n2)c1 0

###

# Test system: RPS6KA5(Kin.Dom.1-N-terminal)
# experimentalConditions: concentration: 1 μM, replicates: in singlicate; n = 1
measuredProperty: %Inh (%)
Field: numeric (%). Do not append units.

Field: example entries. Status: answers known.
Cn1ccc2ncnc(Oc3ccc(NC(=O)Nc4ccccc4)cc3)c21 : 0
COc1cccc(NC(=O)NC2CCN(c3ccnc(Nc4ccc(F)cc4)n3)C2)c1 (centres unmarked) : 0
COc1ccc(Nc2nccc(-c3cccc(NC(=O)c4cc5cc(F)ccc5[nH]4)c3)n2)cc1 : 6

Please look up its %Inh: Cc1nnc(-c2ccc3occ(-c4ccc(S(C)=O)cc4)c3c2)[nH]1 (centres unmarked) 0

Name the recorded %Inh for Cc1cc(-c2ccc3c(c2)CC[C@@H](N[C@@H](C)c2ccccc2)C3)cnc1N.Cl . 6

###

# System: PAK3
# experimentalConditions: concentration: 1 μM, replicates: in singlicate; n = 1
Lab note: compare %Inh against 2%. Equal or greater, write yes (1). Smaller, write no (0).

Use these answered entries as a reference point.
O=C(Nc1ccc2c(c1)OCO2)NC1CCN(c2ccnc(Nc3ccc(F)cc3)n2)C1 (stereo not shown) : no (0)
CCn1c(-c2cccnc2O)nc2cnccc21 : no (0)
Cc1cc(N2Cc3ccccc3C2)nc(Nc2ccc(S(=O)(=O)N3CCOCC3)cc2)n1.Cl : no (0)
Nc1nc(-c2nccs2)c(-c2ccnc3ccccc23)s1 : yes (1)
COc1ccc(Nc2nccc(-c3cccc(NC(=O)c4cc5cc(F)ccc5[nH]4)c3)n2)cc1 : yes (1)

Hi team, for O=C(Nc1n[nH]c2nc(-c3nccs3)c(Br)cc12)C1CCCC1 , is the recorded %Inh at or above 2%? yes (1)

State whether the measured %Inh reaches 2%, counting equality as reaching it, for COc1ccc(Nc2nccc(NCCNC(=O)Nc3ccccc3F)n2)cc1 no (0)

Check if %Inh >= 2% (inclusive). Item: Cl.NC(=O)c1cccc(Nc2nccc(Nc3ccc(Oc4cccc(Cl)c4)c(Cl)c3)n2)c1 yes (1)

I'd appreciate it if you could say whether CC(=O)Nc1nc2cnc(Nc3cc(NC(=O)c4cccc(CCC#N)c4)ccc3C)nc2s1 has %Inh at least equal to 2%. yes (1)

###

# Test system: NEK4
# experimentalConditions: concentration: 1 μM, replicates: in singlicate; n = 1
measuredProperty: %Inh (%)
Just the number in %, nothing appended.

// solved cases for %Inh follow
C[C@@H]1CCCCN1c1cc(-c2ccc3c(N)n[nH]c3c2)nc(N)n1 : 0
Fc1cc(Cl)ccc1Nc1ccnc2cc(-c3ccc(CN4CCCCC4)o3)ccc12 : 0

What does the record list as %Inh for O=C(O)COc1ncnc2cc(-c3ccc4[nH]ncc4c3)sc12 ? 10

What value of %Inh has been reported for the following compound? COc1ccccc1-c1ccc2c(NC(=O)C3CC3)n[nH]c2n1 6

###

# %Inh annotations
# System: SIK2
# experimentalConditions: concentration: 1 μM, replicates: in singlicate; n = 1
Give the value, in units of %, as a plain number.

Cc1ccccc1-n1cnc2c(N)ncnc21 [SKF-97510] : 0

// query %Inh value for entry CC(C)(C)c1ccc(C(=O)Nc2cn3cc(-c4cccnc4)ccc3n2)cc1 25

Suppose we examine the compound CS(=O)(=O)c1ccc(-c2nc3n(c2-c2ccncc2)CCC3)cc1 [SKF-105942] ; what %Inh value has been reported? 0

So what does the record say about %Inh for O=c1cc(N2CCOCC2)nc2n(Cc3cccc(Cl)c3Cl)ccn12 [GSK2286295] ? 0

Sample Cc1cccc(-c2nc(-c3ccc(S(C)(=O)=O)cc3)sc2-c2ccnc(NCCc3ccccc3)c2)c1 — what was its %Inh? 11

###

Quick list: %Inh per entry.
# Tested on: EPHA6
# experimentalConditions: concentration: 1 μM, replicates: in singlicate; n = 1
Reply numerically in %, unit not repeated.

Below are worked cases with known answers.
Fc1cc(Cl)ccc1Nc1ccnc2cc(I)ccc12 : 34
CCn1c(-c2ccccn2)nc2cnccc21 : 7
Cn1ccc2ncnc(Oc3ccc(NC(=O)Nc4ccccc4)cc3)c21 : 18
COc1ccccc1-c1ccc2c(NC(=O)C3CC3)n[nH]c2n1 : 9
Cc1nnc(-c2ccc3occ(-c4ccc(S(C)=O)cc4)c3c2)[nH]1 (centres unmarked) : 34
Nc1nc(-c2nccs2)c(-c2ccnc3ccccc23)s1 : 8
Cl.c1ccc(-c2n[nH]cc2-c2ccnc(-c3ccc(CN4CCOCC4)cc3)c2)nc1 : 5
CC(=O)Nc1nc2cnc(Nc3cc(NC(=O)c4cccc(CCC#N)c4)ccc3C)nc2s1 : 27
O=C(Nc1ccccc1)Nc1cccc(Oc2ccc3nccn3n2)c1 : 0
Cc1ccc(-c2cc(-c3c[nH]nc3-c3ccccn3)ccn2)cc1 : 8

Request - read-out %Inh | tested on EPHA6 | compound Clc1cc(Cl)cc(Nc2ccnc(Nc3cc(Cl)cc(Cl)c3)n2)c1 13

What %Inh appears in the records for this compound with EPHA6? O=C(Nc1ccc2c(c1)OCO2)NC1CCN(c2ccnc(Nc3ccc(F)cc3)n2)C1 (centres unmarked) 8

Param readout = %Inh; param system = EPHA6; param query = O=c1cc(N2CCOCC2)nc2n(Cc3cccc(Cl)c3Cl)ccn12 ; response: value 0

// fetch EPHA6 %Inh for Cc1cccc(-c2nc(-c3ccc(S(C)(=O)=O)cc3)sc2-c2ccnc(NCCc3ccccc3)c2)c1 15

Could you share what %Inh was measured for Cc1c(O)cccc1Nc1ccnc2ccc(C(F)(F)F)cc12.Cl , tested on EPHA6? 14

Given the entry CC(C)(C)c1ccc(C(=O)Nc2cn3cc(-c4cccnc4)ccc3n2)cc1 , what %Inh was observed with EPHA6? 29

Request - read-out %Inh | tested on EPHA6 | compound Cc1cccc(-c2nc(Nc3ccncc3)c3ccccc3n2)n1 0

What measured %Inh is associated with O=C(Nc1n[nH]c2nc(-c3nccs3)c(Br)cc12)C1CC1 on EPHA6? 32

Lookup: %Inh / EPHA6 / Cc1cc(-c2ccc3c(c2)CC[C@@H](N[C@@H](C)c2ccccc2)C3)cnc1N.Cl 10

Enter reported %Inh observed with EPHA6 for Cn1ccc2ncnc(Oc3cccc(C(=O)Nc4ccccc4)c3)c21 0

What value of %Inh on EPHA6 does COc1cc2ncn(-c3cc(OCC4CCCO4)c(C(N)=O)s3)c2cc1OC (centres unmarked) have? 1

Recall the recorded %Inh for O=C(Nc1n[nH]c2cc(-c3cccc(F)c3F)ccc12)C1CC1 with EPHA6 and state it. 0

Recorded %Inh for Cc1cccc(-c2nc(Nc3ccc4[nH]ncc4c3)c3ccccc3n2)n1 with EPHA6, please? 0

Can you look up %Inh on EPHA6 for COC(=O)c1c(-c2ccccc2)c2cc(OC)ccc2c(=O)n1Cc1ccccc1 ? 43

Query %Inh on EPHA6 for CCn1c(-c2cccnc2O)nc2cnccc21 0

Could you share what %Inh was measured for Cl.NC(=O)c1cccc(Nc2nccc(Nc3ccc(Oc4cccc(Cl)c4)c(Cl)c3)n2)c1 , tested on EPHA6? 0
